Origin of values: patent US6448405B1

# System Tested: human progesterone receptor A form (PR-A) (Homo sapiens)
# Sequence (P06401 165-933): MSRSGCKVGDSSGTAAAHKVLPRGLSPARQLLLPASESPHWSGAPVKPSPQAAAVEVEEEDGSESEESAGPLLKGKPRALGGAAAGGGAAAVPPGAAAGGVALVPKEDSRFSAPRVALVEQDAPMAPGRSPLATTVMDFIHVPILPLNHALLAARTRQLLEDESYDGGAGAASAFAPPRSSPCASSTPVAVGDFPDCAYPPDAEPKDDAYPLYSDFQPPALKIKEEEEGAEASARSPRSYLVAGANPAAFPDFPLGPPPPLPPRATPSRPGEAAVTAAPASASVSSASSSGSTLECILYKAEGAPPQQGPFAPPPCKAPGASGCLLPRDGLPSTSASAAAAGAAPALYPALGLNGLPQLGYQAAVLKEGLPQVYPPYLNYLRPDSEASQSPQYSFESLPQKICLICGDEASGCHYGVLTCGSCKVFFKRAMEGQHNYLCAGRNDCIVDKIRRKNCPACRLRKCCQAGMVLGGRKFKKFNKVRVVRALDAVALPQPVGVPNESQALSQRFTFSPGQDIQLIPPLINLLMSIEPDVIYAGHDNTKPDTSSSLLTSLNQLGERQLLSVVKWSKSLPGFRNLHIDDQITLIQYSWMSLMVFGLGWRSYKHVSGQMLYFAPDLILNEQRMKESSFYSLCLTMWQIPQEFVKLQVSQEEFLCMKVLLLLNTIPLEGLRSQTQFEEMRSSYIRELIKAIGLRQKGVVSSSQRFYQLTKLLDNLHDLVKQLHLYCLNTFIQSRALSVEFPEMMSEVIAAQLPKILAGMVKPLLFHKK
# Assay Notes: PR binding assay, baculovirus extract, [3H] progesterone
# Setup Conditions: read-out: PR Binding Ki
Attribute Measured: pKi
Answers are plain numbers, as −log10 of the molar value.

> print(dat)
                                  compound                             system.tested  attribute.measured  reported.result
1  CC1=CC(C)(C)Nc2ccc(-c3cccc(Cl)c3Cl)cc21  human progesterone receptor A form (PR-A) (Homo sapiens)                 pKi             7.64
2    CC1=CC(C)(C)Nc2ccc(-c3nn(C)cc3Br)cc21  human progesterone receptor A form (PR-A) (Homo sapiens)                 pKi             7.09

Below: the item to evaluate.
Task item: // pKi lookup, key: CC1(C)Nc2ccc3c(c2C(=O)C1(C)C)C(c1ccc(Cl)cc1)Oc1ccccc1-3 (racemic)
Reply: 7.60
